Hello, the source for this data is patent US20250011330A1, in case you need it.

Field: IC50. Provide a value for each of the molecules that follow.
# TARGET DESC: TDP2 (Homo sapiens (Human), UniProt O95551)
# Sequence (O95551 whole entry, species assumed): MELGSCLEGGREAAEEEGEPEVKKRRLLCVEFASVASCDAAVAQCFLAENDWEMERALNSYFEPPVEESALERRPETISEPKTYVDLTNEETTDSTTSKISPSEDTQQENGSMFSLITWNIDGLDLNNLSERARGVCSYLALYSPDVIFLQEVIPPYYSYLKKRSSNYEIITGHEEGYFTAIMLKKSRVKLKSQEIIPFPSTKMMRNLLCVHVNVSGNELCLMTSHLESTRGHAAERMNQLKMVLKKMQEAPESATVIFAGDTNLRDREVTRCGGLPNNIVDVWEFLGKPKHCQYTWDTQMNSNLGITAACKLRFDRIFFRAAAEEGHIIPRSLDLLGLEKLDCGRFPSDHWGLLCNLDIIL
# PROTOCOL DESCRIPTION: gel-based TDP2 fluorescence assay in vitro
# Type: biochemical
# MEASUREMENT PARAMETERS: Table 8, lead compounds with different linkers; read-out: TDP2 IC50

Report IC50 for N#Cc1ccc(-c2ccc(CO/N=C/c3ccc(-c4nc5cc(-c6ccccc6)ccn5c4Nc4ccc(C(=O)O)cc4)cc3)cc2)nc1 please. > 100 µM

Report IC50 for O=C(O)c1ccc(Nc2c(-c3ccccc3)nc3ccccn23)cc1 please. > 100 µM

Report IC50 for N#Cc1ccc(-c2ccc(Cn3cc(COc4ccc(-c5nc6ccccn6c5Nc5ccc(C(=O)O)cc5)cc4)nn3)cc2)nc1 please. > 100 µM

Report IC50 for N#Cc1ccc(-c2ccc(CO/N=C/c3ccc(-c4nc5ccccn5c4Nc4ccc(C(=O)O)cc4)cc3)cc2)nc1 please. > 100 µM

Report IC50 for N#Cc1ccc(-c2ccc(Cn3cc(-c4ccc(-c5nc6cc(-c7ccccc7)ccn6c5Nc5ccc(C(=O)O)cc5)cc4)nn3)cc2)nc1 please. 25.9 µM

Report IC50 for O=C(O)c1ccc(Nc2c(-c3ccccc3)nc3cc(-c4ccccc4)ccn23)cc1 please. > 100 µM

Report IC50 for N#Cc1ccc(-c2ccc(Cn3cc(-c4ccn5c(Nc6ccc(C(=O)O)cc6)c(-c6ccccc6)nc5c4)nn3)cc2)nc1 please. 18 µM

---

Field: FC (fold change). Provide a value for each of the compounds that follow.
# TARGET DESC: UniProt Q9NUW8
# PROTOCOL DESCRIPTION: TDP1 gel-based in vitro fluorescence assay
# Type: biochemical
# MEASUREMENT PARAMETERS: Table 7, ratio of IC50 TDP2 to TDP1
Field format: numeric only.

Report FC (fold change) for O=C(O)c1ccc(Nc2c(-c3ccc(CO/N=C/c4ccc(N5CCCC5=O)cc4)cc3)nc3cc(-c4ccccc4)ccn23)cc1 [XZ703] please. 1

Report FC (fold change) for O=C(O)c1ccc(Nc2c(-c3ccc(CO/N=C/c4ccc(-c5cnccn5)cc4)cc3)nc3cc(-c4ccccc4)ccn23)cc1 [XZ702] please. 3

---

# TARGET DESC: TDP1 (Homo sapiens (Human), UniProt Q9NUW8)
# Sequence (Q9NUW8 whole entry): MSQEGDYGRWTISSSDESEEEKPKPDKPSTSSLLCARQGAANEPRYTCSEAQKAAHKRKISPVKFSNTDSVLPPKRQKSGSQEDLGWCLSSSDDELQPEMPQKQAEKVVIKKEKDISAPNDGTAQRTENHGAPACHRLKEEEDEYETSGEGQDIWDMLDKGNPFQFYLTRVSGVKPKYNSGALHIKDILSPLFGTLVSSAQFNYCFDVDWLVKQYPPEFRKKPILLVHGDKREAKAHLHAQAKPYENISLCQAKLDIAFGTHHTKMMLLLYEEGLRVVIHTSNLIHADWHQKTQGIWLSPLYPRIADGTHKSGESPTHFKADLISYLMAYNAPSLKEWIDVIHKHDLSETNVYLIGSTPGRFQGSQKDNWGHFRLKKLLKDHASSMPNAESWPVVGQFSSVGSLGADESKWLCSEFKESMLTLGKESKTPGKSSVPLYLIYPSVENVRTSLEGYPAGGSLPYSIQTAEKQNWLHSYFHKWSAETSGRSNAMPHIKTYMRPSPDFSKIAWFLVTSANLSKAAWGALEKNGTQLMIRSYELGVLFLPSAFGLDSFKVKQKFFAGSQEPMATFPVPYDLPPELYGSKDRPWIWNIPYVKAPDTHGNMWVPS
# PROTOCOL DESCRIPTION: TDP1 gel-based in vitro fluorescence assay
# Type: biochemical
# MEASUREMENT PARAMETERS: Table 10, PROTACs; read-out: TDP1 IC50
MEASUREMENT LABEL: IC50

Report IC50 for Cc1ncsc1-c1ccc(CNC(=O)[C@@H]2C[C@@H](O)CN2C(=O)[C@@H](NC(=O)COCCOCCOCCn2cc(COc3ccc(-c4nc5cc(-c6ccccc6)ccn5c4Nc4ccc(C(=O)O)cc4)cc3)nn2)C(C)(C)C)cc1 please. > 100 µM

Report IC50 for Cc1ncsc1-c1ccc(CNC(=O)[C@@H]2C[C@@H](O)CN2C(=O)[C@@H](NC(=O)COCCOCCOCCOCCn2cc(-c3ccn4c(Nc5ccc(C(=O)O)cc5)c(-c5ccccc5)nc4c3)nn2)C(C)(C)C)cc1 please. > 100 µM

Report IC50 for O=C(COc1cccc2c1C(=O)N(C1CCC(=O)NC1=O)C2=O)NCCCCn1cc(COc2ccc(-c3nc4cc(-c5ccccc5)ccn4c3Nc3ccc(C(=O)O)cc3)cc2)nn1 (stereo not shown) please. > 100 µM

Report IC50 for O=C(COc1cccc2c1C(=O)N(C1CCC(=O)NC1=O)C2=O)NCCCCn1cc(-c2ccn3c(Nc4ccc(C(=O)O)cc4)c(-c4ccccc4)nc3c2)nn1 (stereo not shown) please. > 100 µM

---

# TARGET DESC: TDP1 (Homo sapiens (Human), UniProt Q9NUW8)
# PROTOCOL DESCRIPTION: TDP1 gel-based in vitro fluorescence assay
# Assay type: biochemical
# MEASUREMENT PARAMETERS: Table 3, gel based TDP1 fluorescence assay; read-out: TDP1 IC50
MEASUREMENT LABEL: IC50 (nM)
The response must be a number in nM with no trailing unit.

Report IC50 for O=C(O)c1ccc(Nc2c(-c3ccc(-c4ccccc4)cc3)nc3ccc(C(=O)O)cn23)cc1 [Compound 8n] please. 2940

---

# TARGET DESC: TDP1 (Homo sapiens (Human), UniProt Q9NUW8)
# PROTOCOL DESCRIPTION: TDP1 gel-based in vitro fluorescence assay
# Type: biochemical
# MEASUREMENT PARAMETERS: Table 1, imidazo[1,2-a]pyridin-3-amines; read-out: IC50
Field: log10 IC50. Provide a value for each of the compounds that follow.
Give log10 of IC50, with IC50 taken in µM.

Report log10 IC50 for O=C(O)c1ccc(Nc2c(-c3ccc(-c4ccccc4)cc3)nc3ccc(C(=O)O)cn23)cc1 please. 0.18

Report log10 IC50 for O=C(O)c1ccc(Nc2c(-c3ccc(OCc4ccccc4)cc3)nc3ccccn23)cc1 please. 1.10

Report log10 IC50 for CS(=O)(=O)c1ccc2nc(-c3ccc(-c4ccccc4)cc3)c(Nc3ccc(C(=O)O)cc3)n2c1 please. 1.00

Report log10 IC50 for O=C(O)c1ccc(Nc2c(-c3ccc(C(F)(F)F)cc3)nc3ccccn23)cc1 please. 0.62

Report log10 IC50 for Cc1ccc(-c2nc3ccccn3c2Nc2ccc(C(=O)O)cc2)cc1 please. 1.17

Report log10 IC50 for O=C(O)c1ccc(Nc2c(-c3ccccc3)nc3ccc(C(=O)O)cn23)cc1 please. -0.05

Report log10 IC50 for CS(=O)(=O)c1ccc2nc(-c3ccccc3)c(Nc3ccc([N+](=O)[O-])cc3)n2c1 please. 1.21

Report log10 IC50 for O=C(O)c1ccc(-c2nc3ccccn3c2Nc2ccccc2)cc1 please. 1.60

Report log10 IC50 for O=C(O)c1ccc(Nc2c(-c3ccc([N+](=O)[O-])cc3)nc3ccccn23)cc1 please. 0.51

Report log10 IC50 for O=C(O)c1ccc2nc(-c3ccccc3)c(Nc3ccc([N+](=O)[O-])cc3)n2c1 please. 1.34

Report log10 IC50 for O=C(O)c1ccc(Nc2c(-c3ccccc3)nc3ccc(Br)cn23)cc1 please. 0.20

Report log10 IC50 for O=C(O)c1ccc2nc(-c3ccccc3)c(Nc3ccccc3)n2c1 please. 0.38

---

Field: pIC50. Provide a value for each of the compounds that follow.
# TARGET DESC: TDP2 (Homo sapiens (Human), UniProt O95551)
# PROTOCOL DESCRIPTION: gel-based TDP2 fluorescence assay in vitro
# Format: biochemical
# MEASUREMENT PARAMETERS: Table 7, HPLC-purified oxime leads; read-out: TDP2 IC50
pIC50: −log10 of the molar value.

Report pIC50 for O=C(O)c1ccc(Nc2c(-c3ccc(CO/N=C\c4ccc(-c5cnccn5)cc4)cc3)nc3cc(-c4ccccc4)ccn23)cc1 [XZ709] please. < 4.00

Report pIC50 for O=C(O)c1ccc(Nc2c(-c3ccccc3)nc3ccccn23)cc1 [XZ615] please. < 4.00

Report pIC50 for Cc1cncc(Oc2ccc(/C=N\OCc3ccc(-c4nc5cc(-c6ccccc6)ccn5c4Nc4ccc(C(=O)O)cc4)cc3)cc2)n1 [XZ711] please. < 4.00

Report pIC50 for O=C(O)c1ccc(Nc2c(-c3ccccc3)nc3cc(-c4ccccc4)ccn23)cc1 [XZ664] please. < 4.00

Report pIC50 for N#Cc1ccc(-c2ccc(/C=N/OCc3ccc(-c4nc5cc(-c6ccccc6)ccn5c4Nc4ccc(C(=O)O)cc4)cc3)cc2)nc1 [XZ701] please. 4.55
